assayed_system: T1R1/T1R3 receptor (Felis catus, UniProt E3UMS2)
procedure_text: cell-based
assay_context: read-out: T1R1/T1R3 EC50 +20 mM L-alanine
pEC50: −log10 of the molar value.
readout: pEC50

Inquiry: Could you tell me which pEC50 is on file for O=P(O)(O)OP(=O)(O)OP(=O)(O)OC[C@H]1O[C@@H](n2cnc3c(Cl)ncnc32)[C@H](O)[C@@H]1O ?
Reply text: < 4.52

---

Kindly state pEC50 for each of the entries shown.
assayed_system: cat T1R1/T1R3 receptor (Felis catus)
Sequence (A0ABI7Z2I4 171-420): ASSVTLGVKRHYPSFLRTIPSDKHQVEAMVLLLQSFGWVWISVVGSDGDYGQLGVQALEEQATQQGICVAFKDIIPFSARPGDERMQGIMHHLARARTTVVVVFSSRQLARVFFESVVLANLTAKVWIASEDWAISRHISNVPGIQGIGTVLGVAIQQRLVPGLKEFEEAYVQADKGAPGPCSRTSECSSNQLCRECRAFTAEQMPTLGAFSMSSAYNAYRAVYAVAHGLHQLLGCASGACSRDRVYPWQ
Sequence (Q49KI5 with tags, fused parts or gaps E206Q/N523D/F654L partner): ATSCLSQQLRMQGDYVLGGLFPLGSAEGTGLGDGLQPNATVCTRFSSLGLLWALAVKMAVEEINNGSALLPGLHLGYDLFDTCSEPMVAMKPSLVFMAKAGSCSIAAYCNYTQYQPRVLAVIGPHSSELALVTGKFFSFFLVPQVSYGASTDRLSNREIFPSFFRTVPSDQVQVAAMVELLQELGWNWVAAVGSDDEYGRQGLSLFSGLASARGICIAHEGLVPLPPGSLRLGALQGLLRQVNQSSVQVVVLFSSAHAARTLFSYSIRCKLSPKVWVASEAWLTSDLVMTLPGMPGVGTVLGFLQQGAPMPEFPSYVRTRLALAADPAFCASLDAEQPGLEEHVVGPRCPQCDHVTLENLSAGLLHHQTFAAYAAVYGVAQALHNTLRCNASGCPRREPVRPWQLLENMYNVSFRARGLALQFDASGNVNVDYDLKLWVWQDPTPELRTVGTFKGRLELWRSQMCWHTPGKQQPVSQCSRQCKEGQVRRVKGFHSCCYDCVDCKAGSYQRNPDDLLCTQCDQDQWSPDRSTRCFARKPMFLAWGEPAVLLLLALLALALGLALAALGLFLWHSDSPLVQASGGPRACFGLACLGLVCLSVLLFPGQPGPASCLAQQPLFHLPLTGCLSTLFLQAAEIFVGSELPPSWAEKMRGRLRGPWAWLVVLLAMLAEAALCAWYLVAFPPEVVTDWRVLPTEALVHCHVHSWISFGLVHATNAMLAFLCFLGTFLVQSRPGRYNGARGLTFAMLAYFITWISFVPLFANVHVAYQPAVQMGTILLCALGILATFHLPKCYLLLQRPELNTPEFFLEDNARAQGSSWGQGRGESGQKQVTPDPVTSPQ
procedure_text: cell-based
assay_context: with 20 mM alanine; read-out: EC50- with Ala
Structures can show the parent of a compound that is named as a salt.
In simple prose, pEC50 is minus the logarithm base ten of a concentration in moles per litre.

Inquiry: Please tell me: pEC50 of Nc1ncnc2c1ncn2C1OC(COP(O)(O)=S)C(O)C1O (centres unmarked) [adenosine 5′-O-thiomonophosphate, Adenosine 5′-O-thiomonophosphate] , system cat T1R1/T1R3 receptor (Felis catus)?
Reply text: 4.22

Inquiry: Please tell me: pEC50 of O=c1nc[nH]c2c1ncn2C1O[C@H](COP(=O)(O)OP(=O)(O)OP(=O)(O)O)[C@@H](O)[C@H]1O (some centres unmarked) [trisodium salt] , system cat T1R1/T1R3 receptor (Felis catus)?
Reply text: 4.10
